Listing of entries alongside the reported SI RES056.
System: HIV-1 double-mutant strain RES056 (K103N/Y181C)
Assay: microbe, parasite or virus in culture
Format: cell-based
Conditions: selectivity index, ratio CC50/EC50, RES056

Previously resolved entries follow.
Cc1cc(C#N)cc(C)c1Oc1nc(Nc2ccc(B3OC(C)(C)C(C)(C)O3)cc2)nc2c1COC2 :: < 1
Cc1cc(C#N)cc(C)c1Oc1nc(Nc2ccc(B3OC(C)(C)C(C)(C)O3)cc2)nc2ncsc12 :: < 1
Cc1cc(C#N)cc(C)c1Oc1nc(Nc2ccc(B3OC(C)(C)C(C)(C)O3)cc2)nc2cccnc12 :: < 1

Query string: Need SI RES056 of "Cc1cc(/C=C/C#N)cc(C)c1Oc1nc(Nc2ccc(B3OC(C)(C)C(C)(C)O3)cc2)nc2c1COC2" , thanks.
Result string: 6

Query string: Same read-out for "Cc1cc(C#N)cc(C)c1Oc1nc(Nc2ccc(B3OC(C)(C)C(C)(C)O3)cc2)nc2c1CCCC2" ?
Result string: < 1

Query string: Same read-out for "Cc1cc(/C=C/C#N)cc(C)c1Oc1nc(Nc2ccc(B3OC(C)(C)C(C)(C)O3)cc2)nc2sccc12" ?
Result string: 10

Query string: Same read-out for "Cc1cc(C#N)cc(C)c1Oc1nc(Nc2ccc(B3OC(C)(C)C(C)(C)O3)cc2)nc2c1SCCC2" ?
Result string: < 1

Query string: Same read-out for "Cc1cc(C#N)cc(C)c1Oc1ccnc(Nc2ccc(B3OC(C)(C)C(C)(C)O3)cc2)n1" ?
Result string: < 1
